Origin of measurements: paper PMC8588467

System: HuTu-80 cells
test-details: Mitochondrial membrane potential, JC-10 flow cytometry
Format: cell-based, human
condition-description: JC-10; IC50/2, 48 h
Recorded measurements of % cells with J-aggregate (red, high membrane potential), one per entry
Dear colleague, please return just the value in %, with no unit written.

Worked examples follow.
1) OC(CBr)C[P+](c1ccccc1)(c1ccccc1)c1ccccc1 (centres unmarked); 54.5
2) OC(CCl)C[P+](c1ccccc1)(c1ccccc1)c1ccccc1 (centres unmarked); 40.7
3) CCCCCCCCCCCCCCCC(=O)OCC(O)C[P+](c1ccccc1)(c1ccccc1)c1ccccc1 (centres unmarked); 35
4) C=CCOCC(O)C[P+](c1ccccc1)(c1ccccc1)c1ccccc1.[I-] (centres unmarked); 88.5

Pending compound:
Prompt: What value of % cells with J-aggregate (red, high membrane potential) has been recorded for this entry: CCCCCCCCCCOCC(O)C[P+](c1ccccc1)(c1ccccc1)c1ccccc1 (centres unmarked)
Response: 89.6

----------
Test system: HuTu-80 cells
test-details: Mitochondrial membrane potential, JC-10 flow cytometry
Type: cell-based, human
condition-description: JC-10; IC50/2, 48 h
readout-kind: % cells with J-monomer (green, decreased membrane potential) (%)
Dear colleague, please return just the value in %, with no unit written.

Worked examples follow.
1) CCCCCCCCCCCCCCCC(=O)OCC(O)C[P+](c1ccccc1)(c1ccccc1)c1ccccc1 (centres unmarked) [3k]; 65
2) C=CCOCC(O)C[P+](c1ccccc1)(c1ccccc1)c1ccccc1.[I-] (centres unmarked) [4c]; 11.3
3) CCCCCCCCCCOCC(O)C[P+](c1ccccc1)(c1ccccc1)c1ccccc1 (centres unmarked) [3j]; 10.4
4) OC(CBr)C[P+](c1ccccc1)(c1ccccc1)c1ccccc1 (centres unmarked) [3b]; 45.5

Prompt: What value of % cells with J-monomer (green, decreased membrane potential) has been recorded for this entry: OC(CCl)C[P+](c1ccccc1)(c1ccccc1)c1ccccc1 (centres unmarked) [3a]
Response: 59.2

----------
System: MCF-7 (human breast adenocarcinoma)
test-details: MTT cytotoxicity, MCF-7
Assay type: cell-based
condition-description: IC50 normal cells (WI38) / IC50 cancer cells; ns = no selectivity
readout-kind: SI MCF-7

Worked examples follow.
1. CCCCCCCCCCCCCCCC(=O)OCC(O)C[P+](c1ccccc1)(c1ccccc1)c1ccccc1 (stereo not drawn); ns
2. COCC(O)C[P+](c1ccccc1)(c1ccccc1)c1ccccc1 (stereo not drawn) [3f]; ns
3. OC(COCC(F)(F)C(F)F)C[P+](c1ccccc1)(c1ccccc1)c1ccccc1 (stereo not drawn); ns
4. CCCCCCCCCCOCC(O)C[P+](c1ccccc1)(c1ccccc1)c1ccccc1 (stereo not drawn); 1.1
5. CCOCC(O)C[P+](c1ccccc1)(c1ccccc1)c1ccccc1.[I-] (stereo not drawn); ns

Prompt: Checklist item: SI MCF-7 tested on MCF-7 (human breast adenocarcinoma), entry C=CCOCC(O)C[P+](c1ccccc1)(c1ccccc1)c1ccccc1.[I-] (stereo not drawn) , value?
Response: 1.4

Prompt: Checklist item: SI MCF-7 tested on MCF-7 (human breast adenocarcinoma), entry CCOCC(O)C[P+](c1ccccc1)(c1ccccc1)c1ccccc1 (stereo not drawn) , value?
Response: ns

Prompt: Checklist item: SI MCF-7 tested on MCF-7 (human breast adenocarcinoma), entry OC(CF)C[P+](c1ccccc1)(c1ccccc1)c1ccccc1 (stereo not drawn) , value?
Response: ns

Prompt: Checklist item: SI MCF-7 tested on MCF-7 (human breast adenocarcinoma), entry OC(CBr)C[P+](c1ccccc1)(c1ccccc1)c1ccccc1 (stereo not drawn) , value?
Response: ns

Prompt: Checklist item: SI MCF-7 tested on MCF-7 (human breast adenocarcinoma), entry C=CCOCC(O)C[P+](c1ccccc1)(c1ccccc1)c1ccccc1 (stereo not drawn) , value?
Response: ns

Prompt: Checklist item: SI MCF-7 tested on MCF-7 (human breast adenocarcinoma), entry COCC(O)C[P+](c1ccccc1)(c1ccccc1)c1ccccc1 (stereo not drawn) [4a] , value?
Response: ns

Prompt: Checklist item: SI MCF-7 tested on MCF-7 (human breast adenocarcinoma), entry OC(CCl)C[P+](c1ccccc1)(c1ccccc1)c1ccccc1 (stereo not drawn) , value?
Response: ns

Prompt: Checklist item: SI MCF-7 tested on MCF-7 (human breast adenocarcinoma), entry CCCCCCCCCCCCCCCCCC(=O)OCC(O)C[P+](c1ccccc1)(c1ccccc1)c1ccccc1 (stereo not drawn) , value?
Response: ns

Prompt: Checklist item: SI MCF-7 tested on MCF-7 (human breast adenocarcinoma), entry COc1cccc2c1C(=O)c1c(O)c3c(c(O)c1C2=O)C[C@@](O)(C(=O)CO)C[C@@H]3O[C@H]1C[C@H](N)[C@H](O)[C@H](C)O1 [Dox, doxorubicin, reference compound] , value?
Response: 2

Prompt: Checklist item: SI MCF-7 tested on MCF-7 (human breast adenocarcinoma), entry OC(CI)C[P+](c1ccccc1)(c1ccccc1)c1ccccc1 (stereo not drawn) , value?
Response: ns
